assay: clinical; design: species or system human; conditions: human, in vivo, iv, 200 mg, Vz
Positions of bridges follow the written chain, without caps; N, C: chain ends. Non-standard residues stand in square brackets, D forms with d. Residues, ends and D or L forms follow the SMILES beside them. *: point of attachment. X1 = NC[C@@H](CC(=O)*)c1cccc(Cl)c1; Dab = NCC[C@H](N)C(=O)O; Dap = NC[C@H](N)C(=O)O
measured parameter: Vd (L)

molecule="CC(C)C[C@@H]1NC(=O)[C@@H](Cc2ccccc2)NC(=O)[C@H](CCN)NC(=O)[C@@H](NC(=O)[C@H](CN)NC(=O)[C@@H](NC(=O)C[C@H](CN)c2cccc(Cl)c2)[C@@H](C)O)CCNC(=O)[C@H]([C@@H](C)O)NC(=O)[C@H](CCN)NC(=O)[C@H](CCN)NC1=O [SPR206] (X1-T[Dap][Dab][Dab][dF]L[Dab][Dab]T; lactam 3-C (inferred))" measured_parameter=Vd numeric_readout=24

----------
experiment: clinical; design: species or system human; settings: human, in vivo, 25 mg, AUC0–8
Positions of bridges follow the written chain, without caps; N, C: chain ends. Non-standard residues stand in square brackets, D forms with d. Residues, ends and D or L forms follow the SMILES beside them. *: point of attachment. X1 = NC[C@@H](CC(=O)*)c1cccc(Cl)c1; Dab = NCC[C@H](N)C(=O)O; Dap = NC[C@H](N)C(=O)O
measured parameter: AUC(0-t)

compound="CC(C)C[C@@H]1NC(=O)[C@@H](Cc2ccccc2)NC(=O)[C@H](CCN)NC(=O)[C@@H](NC(=O)[C@H](CN)NC(=O)[C@@H](NC(=O)C[C@H](CN)c2cccc(Cl)c2)[C@@H](C)O)CCNC(=O)[C@H]([C@@H](C)O)NC(=O)[C@H](CCN)NC(=O)[C@H](CCN)NC1=O [SPR206] (X1-T[Dap][Dab][Dab][dF]L[Dab][Dab]T; lactam 3-C (inferred))" measured_parameter=AUC(0-t) result="5880 ng·h/mL"

----------
assay: clinical; design: species or system human; details: human, in vivo, 25 mg, Half-life
Positions of bridges follow the written chain, without caps; N, C: chain ends. Non-standard residues stand in square brackets, D forms with d. Residues, ends and D or L forms follow the SMILES beside them. *: point of attachment. X1 = NC[C@@H](CC(=O)*)c1cccc(Cl)c1; Dab = NCC[C@H](N)C(=O)O; Dap = NC[C@H](N)C(=O)O
measured parameter: half-life (h)

compound="CC(C)C[C@@H]1NC(=O)[C@@H](Cc2ccccc2)NC(=O)[C@H](CCN)NC(=O)[C@@H](NC(=O)[C@H](CN)NC(=O)[C@@H](NC(=O)C[C@H](CN)c2cccc(Cl)c2)[C@@H](C)O)CCNC(=O)[C@H]([C@@H](C)O)NC(=O)[C@H](CCN)NC(=O)[C@H](CCN)NC1=O [SPR206] (X1-T[Dap][Dab][Dab][dF]L[Dab][Dab]T; lactam 3-C (inferred))" numeric_readout=4

----------
experiment: clinical; set-up: species or system human; conditions: human, in vivo, iv, 100 mg, CL
Positions of bridges follow the written chain, without caps; N, C: chain ends. Non-standard residues stand in square brackets, D forms with d. Residues, ends and D or L forms follow the SMILES beside them. *: point of attachment. X1 = NC[C@@H](CC(=O)*)c1cccc(Cl)c1; Dab = NCC[C@H](N)C(=O)O; Dap = NC[C@H](N)C(=O)O
measured parameter: clearance (mL/min)

compound="CC(C)C[C@@H]1NC(=O)[C@@H](Cc2ccccc2)NC(=O)[C@H](CCN)NC(=O)[C@@H](NC(=O)[C@H](CN)NC(=O)[C@@H](NC(=O)C[C@H](CN)c2cccc(Cl)c2)[C@@H](C)O)CCNC(=O)[C@H]([C@@H](C)O)NC(=O)[C@H](CCN)NC(=O)[C@H](CCN)NC1=O [SPR206] (X1-T[Dap][Dab][Dab][dF]L[Dab][Dab]T; lactam 3-C (inferred))" numeric_readout=83.3
